Assay: Oral bioavailability in rat at 25 mg/kg
Format: ADME, organism-based
Conditions: in vivo
Endpoint: bioavailability (%)
Answers are plain numbers, in %.

Measured bioavailability, `CN(c1ccc(F)c(NC(=O)c2cccc(OC(C)(C)C#N)c2Cl)c1)c1ccc2nc(NC(=O)C3CC3)sc2n1.O.O=S(=O)(O)c1ccccc1` : 38.4

* * *

Experiment: Mean residence time in rat at 25 mg/kg, po
Type: ADME, organism-based
Set-up: dose 25 mg/kg, route oral
Settings: in vivo
Endpoint: MRT (h)
Numbers only, in h.

Measured MRT, `CN(c1ccc(F)c(NC(=O)c2cccc(OC(C)(C)C#N)c2Cl)c1)c1ccc2nc(NC(=O)C3CC3)sc2n1.O.O=S(=O)(O)c1ccccc1` : 5.26

* * *

Experiment: Cmax in rat at 25 mg/kg, po
Format: ADME, organism-based
Set-up: dose 25 mg/kg, route oral
Conditions: in vivo
Endpoint: Cmax
Note: a bare number is incomplete; add the unit.

Measured Cmax, `CN(c1ccc(F)c(NC(=O)c2cccc(OC(C)(C)C#N)c2Cl)c1)c1ccc2nc(NC(=O)C3CC3)sc2n1.O.O=S(=O)(O)c1ccccc1` : 660 ng/mL
